Tested on: SK-OV-3 ovarian
Test: NCI-60 one-dose screen, 48 h
Conditions: 10 µM unless noted
Compounds without any hit were thinned out: in the full panel of roughly 83,000, 20% have a hit. The source made the active and inactive calls. The calls were made as follows: active = growth percent below 10; inactive = the rest.
Write down the outcome that applies. Available outcomes: true for active, false for inactive

COc1cc2c(Oc3ccc(NC(=O)C4(C(=O)Nc5ccc(F)cc5)CC4)cc3F)ccnc2cc1OCCCN1CCOCC1 :: true
COC(=O)C1=C(C(=O)OC)C23C=C(C)C1C2=C(C)C1(CC1)[C@@](C)(O)C3=O (some centres not stated) :: true
CN1CCC(COc2cnc(-c3cccc(Cn4nc(-c5cccc(C#N)c5)ccc4=O)c3)nc2)CC1 :: false

Alright, here's another compound for you.
Asked: Outcome logged for `COc1cc(CCc2cc(NC(=O)c3ccc(N4C[C@@H](C)N[C@@H](C)C4)cc3)n[nH]2)cc(OC)c1` in this assay:
Given back: false
